target: T1, scHLA-B27-mmH (engineered HLA-B*27 ectodomain in-line fusion protein) (human (HLA-B*2705, beta-2 …)); experiment: SPR (Biacore), 25 C, PBS pH 7.2
T1 construct: also called soluble HLA-B*27 fusion protein
readout: pKd
Give only the number. pKd is defined as minus log10 of concentration in molar units.

Give the measured pKd for H4H2490N2 (antibody, V domains shown) VH: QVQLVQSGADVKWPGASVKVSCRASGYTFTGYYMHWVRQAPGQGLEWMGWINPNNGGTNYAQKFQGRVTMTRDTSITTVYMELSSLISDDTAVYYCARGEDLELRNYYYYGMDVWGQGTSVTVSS VL: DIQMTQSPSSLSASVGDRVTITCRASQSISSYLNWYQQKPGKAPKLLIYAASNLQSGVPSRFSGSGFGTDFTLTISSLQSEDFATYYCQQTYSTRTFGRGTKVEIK
6.62
